Tested on: 648629-189-R-J1-PDC complex spheroids viability
Assay: Anticancer human tumor 648629-189-R-J1-PDC patient-derived bladder carcinoma cell line growth inhibition [CLK]
Conditions: second compound 10 µM; first compound 10 µM; active compounds read low
# note: exactly 10% is not below, so it is F; use T for viability, T/C strictly under it

[
  {
    "Compound": "Nc1ccccc1NC(=O)c1ccc(CNC(=O)OCc2cccnc2)cc1 + CNC(=O)c1ccc(Nc2nc(OC3CCCC3)c3c(-c4ccc5nc(C)oc5c4)c[nH]c3n2)c(OC)c1",
    "Tested system": "648629-189-R-J1-PDC complex spheroids viability",
    "Label": "T"
  },
  {
    "Compound": "CC(=O)O[C@H]1C(=O)[C@@]2(C)[C@H]([C@H](OC(=O)c3ccccc3)[C@]3(O)C[C@H](OC(=O)[C@H](O)[C@@H](NC(=O)c4ccccc4)c4ccccc4)C(C)=C1C3(C)C)[C@]1(OC(C)=O)CO[C@@H]1C[C@@H]2O + CNC(=O)c1ccc(Nc2nc(OC3CCCC3)c3c(-c4ccc5nc(C)oc5c4)c[nH]c3n2)c(OC)c1",
    "Tested system": "648629-189-R-J1-PDC complex spheroids viability",
    "Label": "F"
  },
  {
    "Compound": "CC1COCCN1c1cc(C2(S(C)(=N)=O)CC2)nc(-c2ccnc3[nH]ccc23)n1 (stereo not given) + CN1CCN(c2cc(C(=O)Nc3cc4cc(-c5cnn(C)c5)ccc4cn3)ccn2)CC1",
    "Tested system": "648629-189-R-J1-PDC complex spheroids viability",
    "Label": "T"
  },
  {
    "Compound": "COc1ccc([C@@H](O)c2cc(-c3ncnc4cc(N5CCOCC5)ccc34)c(F)cc2Cl)nn1 + CNC(=O)c1ccc(Nc2nc(OC3CCCC3)c3c(-c4ccc5nc(C)oc5c4)c[nH]c3n2)c(OC)c1",
    "Tested system": "648629-189-R-J1-PDC complex spheroids viability",
    "Label": "F"
  },
  {
    "Compound": "COc1cccc2c1C(=O)c1c(O)c3c(c(O)c1C2=O)CC(O)(C(=O)CO)CC3OC1CC(N)C(O)C(C)O1 (stereo not given) + CN1CCN(c2cc(C(=O)Nc3cc4cc(-c5cnn(C)c5)ccc4cn3)ccn2)CC1",
    "Tested system": "648629-189-R-J1-PDC complex spheroids viability",
    "Label": "T"
  },
  {
    "Compound": "COC1C=CCC(C)C(C)S(=O)(=O)NC(=O)c2ccc3c(c2)N(CC2CCC21)CC1(CCCc2cc(Cl)ccc21)CO3 (stereo not given) + CN1CCN(c2cc(C(=O)Nc3cc4cc(-c5cnn(C)c5)ccc4cn3)ccn2)CC1",
    "Tested system": "648629-189-R-J1-PDC complex spheroids viability",
    "Label": "T"
  },
  {
    "Compound": "CC(Nc1ccc2c(c1)OCCn1cc(N3C(=O)OCC3C(F)F)nc1-2)C(N)=O (stereo not given) + CNC(=O)c1ccc(Nc2nc(OC3CCCC3)c3c(-c4ccc5nc(C)oc5c4)c[nH]c3n2)c(OC)c1",
    "Tested system": "648629-189-R-J1-PDC complex spheroids viability",
    "Label": "F"
  },
  {
    "Compound": "O=C(c1cc(Cc2n[nH]c(=O)c3ccccc23)ccc1F)N1CCN(C(=O)C2CC2)CC1 + CNC(=O)c1ccc(Nc2nc(OC3CCCC3)c3c(-c4ccc5nc(C)oc5c4)c[nH]c3n2)c(OC)c1",
    "Tested system": "648629-189-R-J1-PDC complex spheroids viability",
    "Label": "F"
  },
  {
    "Compound": "CC1COCCN1c1cc(C2(S(C)(=N)=O)CC2)nc(-c2ccnc3[nH]ccc23)n1 (stereo not given) + CNC(=O)c1ccc(Nc2nc(OC3CCCC3)c3c(-c4ccc5nc(C)oc5c4)c[nH]c3n2)c(OC)c1",
    "Tested system": "648629-189-R-J1-PDC complex spheroids viability",
    "Label": "F"
  },
  {
    "Compound": "O=c1[nH]cc(F)c(=O)[nH]1 + CNC(=O)c1ccc(Nc2nc(OC3CCCC3)c3c(-c4ccc5nc(C)oc5c4)c[nH]c3n2)c(OC)c1",
    "Tested system": "648629-189-R-J1-PDC complex spheroids viability",
    "Label": "T"
  }
]

###

Here the recorded viability, T/C is given for each entry.
Tested on: 648629-189-R-J1-PDC complex spheroids viability
Experiment: Anticancer human tumor 648629-189-R-J1-PDC cell line growth inhibition [CLK];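 further: drug exposure lasted seven days before viability readout; 100% = DMSO vehicle control wells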
Conditions: second compound 10 µM; first compound 10 µM; active compounds read low

[
  {
    "Molecule": "C#Cc1c(F)ccc2cc(O)cc(-c3ncc4c(N5CC6CCC(C5)N6)nc(OCC56CCCN5CC(F)C6)nc4c3F)c12 (stereo not given) + CNC(=O)c1ccc(Nc2nc(OC3CCCC3)c3c(-c4ccc5nc(C)oc5c4)c[nH]c3n2)c(OC)c1",
    "viability, T/C / %": 16.6
  },
  {
    "Molecule": "O=C(c1cc(Cc2n[nH]c(=O)c3ccccc23)ccc1F)N1CCN(C(=O)C2CC2)CC1 + CN1CCN(c2cc(C(=O)Nc3cc4cc(-c5cnn(C)c5)ccc4cn3)ccn2)CC1",
    "viability, T/C / %": 0.5
  },
  {
    "Molecule": "C=CC(=O)N1CCN(c2nc(=O)n(-c3c(C)ccnc3C(C)C)c3nc(-c4c(O)cccc4F)c(F)cc23)C(C)C1 (stereo not given) + CN1CCN(c2cc(C(=O)Nc3cc4cc(-c5cnn(C)c5)ccc4cn3)ccn2)CC1",
    "viability, T/C / %": 0.15
  },
  {
    "Molecule": "CC1(C)CCC(CN2CCN(c3ccc(C(=O)NS(=O)(=O)c4ccc(NCC5CCOCC5)c([N+](=O)[O-])c4)c(Oc4cnc5[nH]ccc5c4)c3)CC2)=C(c2ccc(Cl)cc2)C1 + CNC(=O)c1ccc(Nc2nc(OC3CCCC3)c3c(-c4ccc5nc(C)oc5c4)c[nH]c3n2)c(OC)c1",
    "viability, T/C / %": 20.4
  },
  {
    "Molecule": "Nc1ccn(C2OC(CO)C(O)C2(F)F)c(=O)n1 (stereo not given) + CNC(=O)c1ccc(Nc2nc(OC3CCCC3)c3c(-c4ccc5nc(C)oc5c4)c[nH]c3n2)c(OC)c1",
    "viability, T/C / %": 7.39
  },
  {
    "Molecule": "COc1ccc([C@@H](O)c2cc(-c3ncnc4cc(N5CCOCC5)ccc34)c(F)cc2Cl)nn1 + CN1CCN(c2cc(C(=O)Nc3cc4cc(-c5cnn(C)c5)ccc4cn3)ccn2)CC1",
    "viability, T/C / %": 0.65
  },
  {
    "Molecule": "CC(CO)NC(=O)c1cc(-c2ccc(Cl)cc2)nn(-c2cnn(C)c2)c1=O (stereo not given) + CN1CCN(c2cc(C(=O)Nc3cc4cc(-c5cnn(C)c5)ccc4cn3)ccn2)CC1",
    "viability, T/C / %": 0.22
  },
  {
    "Molecule": "Nc1ccn(C2OC(CO)C(O)C2(F)F)c(=O)n1 (stereo not given) + CN1CCN(c2cc(C(=O)Nc3cc4cc(-c5cnn(C)c5)ccc4cn3)ccn2)CC1",
    "viability, T/C / %": 0.17
  },
  {
    "Molecule": "C=C(F)C(=O)N1CCN(c2nc(OCC3CCCN3C)nc3c2CCN(c2cccc4cccc(Cl)c24)C3)CC1CC#N (stereo not given) + CN1CCN(c2cc(C(=O)Nc3cc4cc(-c5cnn(C)c5)ccc4cn3)ccn2)CC1",
    "viability, T/C / %": 0.21
  },
  {
    "Molecule": "C=CC(=O)N1CCN(c2nc(=O)n(-c3c(C)ccnc3C(C)C)c3nc(-c4c(O)cccc4F)c(F)cc23)C(C)C1 (stereo not given) + CNC(=O)c1ccc(Nc2nc(OC3CCCC3)c3c(-c4ccc5nc(C)oc5c4)c[nH]c3n2)c(OC)c1",
    "viability, T/C / %": 28.5
  }
]

###

Tested on: 648629-189-R-J1-PDC complex spheroids viability
Test: Anticancer human tumor 648629-189-R-J1-PDC cell line growth inhibition [CLK];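 further: drug exposure lasted seven days before viability readout; 100% = DMSO vehicle control wells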
Details: second compound 10 µM; first compound 0.0316 µM; active compounds read low
Reported viability, T/C values follow for various compounds

[
  {
    "Compound": "CCN1CCN(Cc2ccc(Nc3ncc(F)c(-c4cc(F)c5nc(C)n(C(C)C)c5c4)n3)nc2)CC1 + CNC(=O)c1ccc(Nc2nc(OC3CCCC3)c3c(-c4ccc5nc(C)oc5c4)c[nH]c3n2)c(OC)c1",
    "viability, T/C (%)": 18.1
  },
  {
    "Compound": "CC(=O)O[C@H]1C(=O)[C@@]2(C)[C@H]([C@H](OC(=O)c3ccccc3)[C@]3(O)C[C@H](OC(=O)[C@H](O)[C@@H](NC(=O)c4ccccc4)c4ccccc4)C(C)=C1C3(C)C)[C@]1(OC(C)=O)CO[C@@H]1C[C@@H]2O + CN1CCN(c2cc(C(=O)Nc3cc4cc(-c5cnn(C)c5)ccc4cn3)ccn2)CC1",
    "viability, T/C (%)": 0.1
  },
  {
    "Compound": "Nc1ccccc1NC(=O)c1ccc(CNC(=O)OCc2cccnc2)cc1 + CN1CCN(c2cc(C(=O)Nc3cc4cc(-c5cnn(C)c5)ccc4cn3)ccn2)CC1",
    "viability, T/C (%)": 0.04
  },
  {
    "Compound": "CC1COCCN1c1cc(C2(S(C)(=N)=O)CC2)nc(-c2ccnc3[nH]ccc23)n1 (stereo not given) + CN1CCN(c2cc(C(=O)Nc3cc4cc(-c5cnn(C)c5)ccc4cn3)ccn2)CC1",
    "viability, T/C (%)": 0.16
  },
  {
    "Compound": "CCCS(=O)(=O)Nc1ccc(F)c(C(=O)c2c[nH]c3ncc(-c4ccc(Cl)cc4)cc23)c1F + CN1CCN(c2cc(C(=O)Nc3cc4cc(-c5cnn(C)c5)ccc4cn3)ccn2)CC1",
    "viability, T/C (%)": 0.11
  }
]

Numbers sourced from PubChem BioAssay AID2060602.
